Measured On: T1, DLG3_3, Q92796
T1 sequence (Q92796 374-475, limits assumed, looked up): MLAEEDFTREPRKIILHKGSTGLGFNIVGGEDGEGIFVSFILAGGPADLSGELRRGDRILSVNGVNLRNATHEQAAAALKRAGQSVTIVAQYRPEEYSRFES
Assay Name: holdup assay
Set-up: key: below the threshold = too weak to quantify, mostly under pKd 3.1 to 4
Measurement Setup: plain residues with an end cap or a label only (N-terminal biotin on a linker: ado-ado)
Measured Attribute: pKd

In the examples that follow, each entry is paired with its recorded pKd.
LPHPHSTTRV [NLGN2, Q8NFZ4] = 3.86
GNSVLKSTQF [SLC22A12, Q96S37] = below the threshold
YNNCLEILRV [DCAF7, P61962] = below the threshold
QPCFNKLFPL [LPXN, O60711] = below the threshold
TPPAAKKSRI [BAZ1A, Q9NRL2] = below the threshold

The value of pKd measured for the binder RHGSCVETSL [TMEM151B, Q8IW70] turned out to be 4.2

Recorded pKd (binder IPLDGETEEL [MYOZ1, Q9NP98] ): below the threshold

// recorded pKd for YRLAQESGLV [ABCC6, O95255] : below the threshold
